- TESTED ON: D(4) dopamine receptor (Homo sapiens)
- Sequence (P21917 whole entry): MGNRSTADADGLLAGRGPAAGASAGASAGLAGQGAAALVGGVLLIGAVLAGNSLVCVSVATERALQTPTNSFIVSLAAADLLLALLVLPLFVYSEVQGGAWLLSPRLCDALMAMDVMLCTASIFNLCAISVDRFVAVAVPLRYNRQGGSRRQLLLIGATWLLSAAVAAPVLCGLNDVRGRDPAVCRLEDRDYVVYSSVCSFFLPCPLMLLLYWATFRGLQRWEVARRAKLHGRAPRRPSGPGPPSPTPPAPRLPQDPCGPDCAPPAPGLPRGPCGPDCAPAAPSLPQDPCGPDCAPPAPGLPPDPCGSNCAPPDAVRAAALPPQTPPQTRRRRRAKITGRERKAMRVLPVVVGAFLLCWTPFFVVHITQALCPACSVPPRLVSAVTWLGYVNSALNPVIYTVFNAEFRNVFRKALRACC
pKi: −log10 of the molar value.
PROPERTY MEASURED: pKi

Please review the entries below; each comes with its answer.
| STRUCTURE AS SMILES | PROPERTY MEASURED | READING |
| --- | --- | --- |
| CO/N=C/c1cccc2c1CC[C@H]1[C@H]2c2cc(O)c(Cl)cc2CCN1C | pKi | 5.12 |
| CCO/N=C/c1cccc2c1CC[C@H]1[C@H]2c2cc(O)c(Cl)cc2CCN1C | pKi | 5.23 |
| CN1CCc2cc(Cl)c(O)cc2[C@H]2c3cccc(C=O)c3CC[C@@H]21 | pKi | 5.22 |

1 = CN1CCc2cc(Cl)c(O)cc2[C@H]2c3cccc(-c4cccs4)c3CC[C@@H]21
2 = CN1CCc2cc(Cl)c(O)cc2[C@H]2c3cccc(-c4ccncc4)c3CC[C@@H]21
INPUT: Hi! Which is lower in terms of pKi, the first one 1 or the second one 2 ? API: response body contains the label of the selected item.
OUTPUT: 1

Provenance of the data: ChEMBL document CHEMBL1156846
